System: UO-31
ASSAY TEXT: NCI tumour cell line growth inhibition, 48 h
The source made the active and inactive calls. No stated cut-off is given here; in the data, active = GI50 up to about 1.1 µM and inactive = higher.
VALUE TYPE: GI50

| COMPOUND | TESTED TARGET | ENDPOINT RESULT |
| --- | --- | --- |
| Cc1ccccc1NC(=O)C(=O)Cc1nc2ccccc2s1 | UO-31 | > 100 µM (inactive) |
| COc1cc2oc(=O)cc(C)c2cc1OC | UO-31 | 66.7 µM (inactive) |
| Cc1[nH]c2ccccc2c1C1Cc2ccccc2N1C(=O)/C(Cl)=C/c1ccccc1 (stereo not given) | UO-31 | 16.3 µM (inactive) |
| CC(C)(C)C(=O)C(N)C(=O)C(C)(C)C | UO-31 | > 100 µM (inactive) |
| COc1ccc2c(c1)CCN=C2Cc1ccccc1CCCl | UO-31 | 16.5 µM (inactive) |
| Oc1ccc(-c2nn3c(CCCCCCCCc4nnc5sc(-c6ccc(O)cc6)nn45)nnc3s2)cc1 | UO-31 | > 100 µM (inactive) |

The measured GI50 associated with COC(c1ccc(C(C)(C)C)cc1)(c1ccc(C(C)(C)C)cc1)c1cc(C(O)(c2cc(C(OC)(c3ccc(C(C)(C)C)cc3)c3ccc(C(C)(C)C)cc3)c(C)cc2C)c2cc(C(OC)(c3ccc(C(C)(C)C)cc3)c3ccc(C(C)(C)C)cc3)c(C)cc2C)c(C)cc1C reads > 100 µM (inactive)

Data point: COC1(OC)c2ccccc2C2(O)c3ccccc3C(=O)C12 (stereo not given) ; GI50 = 16.4 µM (inactive)

Please fill in: GI50 reported for COC(=O)c1ccccc1N1C(=O)Cc2ccccc2C1=O = > 100 µM (inactive)

Lab note: measured GI50 of O=C(O)c1ccccn1 was > 100 µM (inactive)

----------
Tested on: A498
ASSAY TEXT: NCI tumour cell line growth inhibition, 48 h
The source made the active and inactive calls. Rule as the data show it: active = GI50 up to about 1.1 µM and inactive = higher.
I would appreciate it if you answered using one of these outcomes: YES for active, NO for inactive

| MOLECULE | GROUP LABEL |
| --- | --- |
| NCc1c(C(N)=O)ncn1Cc1ccccc1 | NO |
| CC(C)N1CC2CC(CN(C(=O)c3ccccc3)C2)C1.[O-][Cl+3]([O-])([O-])O | NO |
| CCC1(CC)SCc2nc3ccccc3n21 | NO |
| O=C1N[C@@H](c2c[nH]c3ccc(Br)cc23)C(=O)N[C@H]1c1c[nH]c2ccc(Br)cc12 | NO |

Request: So what was the verdict on N=c1oc2ccccc2cc1C(=O)Nc1nccs1 in this test?
Response: NO

Request: Record request — test call for Nc1ccc(Cc2ccc(N)c(C(=O)O)c2)cc1C(=O)O
Response: NO

Request: Each molecule tested received a call. Report the one for O=C(/C=C/c1ccc(Br)cc1)c1ccc(NCc2nc3ccccc3[nH]2)cc1 .
Response: NO

Request: Field: outcome | Entry: COC(=O)CSC(=S)Nc1nnc(NC(=S)SCOC(C)=O)n1C(=S)SCC(=O)OC
Response: NO

Request: Test call for this molecule, please: N#C/C(=C1\SC(C(N)=O)=C(N)N1c1ccccc1)c1nc2ccccc2[nH]1
Response: NO

----------
# maps each entry to its GI50
Tested on: TK-10
ASSAY TEXT: NCI tumour cell line growth inhibition, 48 h
The source made the active and inactive calls. Rule as the data show it: active = GI50 up to about 1.1 µM and inactive = higher.

Example results:
| MOLECULE | GI50 |
| --- | --- |
| COc1ccc2nc3cc(Cl)ccc3c(NCCCN3CCN(CCCNc4ccc5nnn6c7ccccc7c(=O)c4c56)CC3)c2c1 | > 10.3 µM (inactive) |
| Cc1c(/N=N/c2ccc(Cl)cc2)c(-c2ccccc2)n(C2OC(CO)C(O)C(O)C2O)c(=S)c1C#N (stereo not given) | 21.2 µM (inactive) |
| NC(=O)c1ccc(NCC2=CC(=O)C=CC2=O)cc1 | 17.7 µM (inactive) |
| CCOC(=O)CCC(NC(=O)Cc1ccc(Nc2nc3ccccc3nc2-c2cccs2)cc1)C(=O)OCC (stereo not given) | 23.5 µM (inactive) |
| COc1cc2cc(OC)c3cc4c(cc3c2c(OC)c1OC)OCO4 | 48.3 µM (inactive) |
| Cc1ccccc1NC(=O)C(=O)Cc1nc2ccccc2s1 | > 100 µM (inactive) |

get_value(item= O=[N+]([O-])c1ccc(C2N3CCCCC3[C@@H]3c4[nH]c5ccccc5c4CCN23)cc1 (stereo not given in full) , readout=GI50) returns 10.7 µM (inactive)

The recorded GI50 for C1CCOC2(CCC3(CC2)OCCCCO3)OC1 is > 100 µM (inactive)

Sample CC(=O)N(CN1C(=O)CCC1C(=O)O)c1ccccc1 (stereo not given) ; GI50 observed: > 53.5 µM (inactive)

get_value(item= O=P1(NCCCl)OCCCN1CCCl (stereo not given) [IFOSFAMIDE] , readout=GI50) returns > 471 µM (inactive)

Record summary for O=C(c1cccnc1)N1N=C(c2ccc3c(c2)OCO3)CC1(O)c1cc(F)c(Cl)cc1Cl (stereo not given) : reported GI50 = 39.1 µM (inactive)

The molecule listed as [O-][S+](Nc1ccccc1)c1ccc(-c2ccccc2)cc1 (stereo not given) shows GI50 equal to > 100 µM (inactive)

Per the records, this molecule ( COc1cc(C(C)c2cc3c(cc2OCCNC(=O)COc2cc4c(cc2C(C)c2cc(OC)c(OC)c(OC)c2)OCO4)OCO3)cc(OC)c1OC (stereo not given) ) has GI50 equal to > 100 µM (inactive)

Entry O=C1c2ccccc2C(=O)c2c(OCC3CO3)ccc(OCC3CO3)c21 (stereo not given) — recorded GI50 = 18.8 µM (inactive)

Entry CC(=O)Nc1ccc(-c2nnc(SCC(=O)Nc3ccccc3[N+](=O)[O-])o2)cc1 ; GI50 = > 100 µM (inactive)

Reported GI50 for COc1ccccc1N1CCN(CCCCNC(=O)c2ccc([N+](=O)[O-])o2)CC1 was 5.9 µM (inactive)

Lab note: measured GI50 of Cc1ccc(S[C@@H](C)[C@@](O)(CF)CN(Cc2ccccc2)C(=O)C(F)(F)F)cc1 was 35.2 µM (inactive)

Summary for this molecule, CSC(=S)N/N=C/c1nccc2ccccc12 : GI50 is 7.08 µM (inactive)

Just so you know, measured GI50 for COc1ccc(/C=C(/C(=O)c2ccc(Cl)cc2)N2C=CC=CC2=C(C#N)C#N)cc1OC came out at 6.32 µM (inactive)

For this molecule ( CCCc1c(OC)c(=O)c2c(OC)cc(OC)c3c4c(OC)cc(OC)c5c(=O)c(OC)c(CCC)c(c1c23)c54 ), measured GI50 is 21 µM (inactive)

----------
Test system: Hs-578T
ASSAY TEXT: NCI tumour cell line growth inhibition, 48 h
Active and inactive are the calls of the source. No stated cut-off is given here; in the data, active = GI50 up to about 1.1 µM and inactive = higher.
Mark one answer only. Choices: 1 for active, 0 for inactive

| COMPOUND | GROUP LABEL |
| --- | --- |
| C=CCNS(=O)(=O)c1ncnc2[nH]cnc12 | 0 |

Request: Could you kindly confirm the outcome this assay logged for COc1ccc(C2CC(c3ccc4ccccc4c3O)=NN2C(C)=O)cc1OC (stereo unspecified) ?
Response: 0

Request: Tell me the assay call for C#CCOC(=O)c1ccc(OC(C)=O)cc1 please.
Response: 0

Request: Could you please tell me the result logged for CC(C)(O)/C=C/C(=O)[C@](C)(O)[C@H]1[C@H](O)C[C@@]2(C)[C@@H]3CC=C4[C@@H](C=C(O)C(=O)C4(C)C)[C@]3(C)C(=O)C[C@]12C in this assay?
Response: 1

Request: How was O=C1N[C@@H](c2c[nH]c3ccc(Br)cc23)C(=O)N[C@H]1c1c[nH]c2ccc(Br)cc12 classified in this test?
Response: 0

Request: Assay outcome for Nc1ncnc2c1ncn2Cc1cccc(CCl)c1 : what was it?
Response: 0

Request: // return assay outcome for CCC1=NC(C(F)(F)F)(C(F)(F)F)N=C(N2CCOCC2)O1
Response: 0

Request: Per the records of this test, what outcome belongs to Cn1c(-c2ccccc2)cc2c3ccsc3c3ccsc3c21 ?
Response: 0

Request: Please state the recorded outcome for this compound: C=CC(C)(C)n1cc(C2=C(O)C(=O)C(c3c(CC=C(C)C)[nH]c4ccccc34)=C(O)C2=O)c2ccccc21
Response: 0

Request: Call for entry O=C(Nn1c(-c2ccccc2)nc2ccccc2c1=O)c1cccc([N+](=O)[O-])c1 :
Response: 0

Request: Given COc1ccc(N2C(=O)C3c4[nH]c5cc(Cl)ccc5c4C4CCC(C(C)(C)C)CC4C3C2=O)cc1 (stereo unspecified) , state the outcome it received in this test.
Response: 0

Request: How did this test come out for CCOC(=O)c1cc2nc3ccccc3c(=O)n2c2ccccc12 ?
Response: 0

Request: I would be grateful if you could indicate the recorded call for COc1c(C=O)c2c(c(OC)c1OC)-c1ccc(OC)c(=O)cc1[C@@H](NC(C)=O)CC2 .
Response: 1

FYI, the data here is from ChEMBL document CHEMBL1201862.
